The following molecules each carry a recorded Ki for human RIP1 kinase domain (2-375) (Homo sapiens (Human)).
Give the number first and the unit second.

Study these solved cases before continuing.
[
  {
    "Molecule": "[O-][S+](c1nc2n(n1)[C@H](c1cc(F)cc(F)c1)CC2)C(F)F (stereo in doubt) [Example 174]",
    "Ki": "310 nM"
  },
  {
    "Molecule": "O=S(=O)(c1nc2n(n1)[C@H](c1ccc(F)c(F)c1)C[C@@H]2F)C1CC1 (single isomer, unassigned) [Example 44]",
    "Ki": "21 nM"
  }
]

Q: Please give the measured Ki for this molecule: [O-][S@+](c1nc2n(n1)[C@H](c1ccccc1)CC2)C(F)F [Example 11]
Result: 10 nM

Q: Please give the measured Ki for this molecule: [O-][S+](CC(F)F)c1nc2n(n1)[C@H](c1ccccc1)C[C@@H]2F (stereo partly shown) [Example 148]
Result: 7 nM
